EXPERIMENTAL TARGET: Proteasome subunit beta type-9 (Homo sapiens) (UniProt P28065)
Sequence (whole entry): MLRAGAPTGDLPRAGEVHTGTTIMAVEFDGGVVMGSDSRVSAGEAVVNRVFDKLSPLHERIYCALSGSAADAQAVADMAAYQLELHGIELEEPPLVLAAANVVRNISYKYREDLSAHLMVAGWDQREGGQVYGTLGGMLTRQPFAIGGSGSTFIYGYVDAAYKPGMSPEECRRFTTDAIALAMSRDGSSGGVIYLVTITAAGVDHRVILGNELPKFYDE
ASSAY PROTOCOL: Inhibition of LMP2 subunit in human DLD1 cells over expressing ABCB1 at 1 uM using Ac-PAL-AMC as substrate incubated for 4 hrs
Type: cell-based
ASSAY CONTEXT: DLD-1
The source made the active and inactive calls. The calls are words filed in the database; no cut-off is given here.
// classify into class 1 (active), class 0 (inactive)

Look over these answered cases.
CC(C)C[C@H](NC(=O)[C@H](CCc1ccccc1)NC(=O)[C@@H]1CCCN1C(=O)CNC(=O)c1cnccn1)C(=O)[C@@]1(C)CO1 | class 1
CC(=O)NCC(=O)N1CCC[C@H]1C(=O)N[C@@H](Cc1ccccc1)C(=O)N[C@@H](CC(C)C)C(=O)[C@@]1(C)CO1 | class 0
CC(C)C[C@H](NC(=O)[C@H](Cc1ccccc1)NC(=O)[C@@H]1CCCN1C(=O)CNC(=O)c1cnccn1)C(=O)[C@@]1(C)CO1 | class 1
C[C@]1(C(=O)[C@H](Cc2ccccc2)NC(=O)[C@H](CO)NC(=O)c2cccc(=O)[nH]2)CO1 | class 0

Moving on to another compound below.
Ask: Give the logged outcome of this assay for the following compound: Cc1ncc(C(=O)NCC(=O)N2CCC[C@H]2C(=O)N[C@@H](Cc2ccc(-c3ccccc3)cc2)C(=O)N[C@@H](CC(C)C)C(=O)[C@@]2(C)CO2)s1
Result: class 1
